Where these numbers come from: PubChem BioAssay (NCATS)

- Assay Protocol: Quantitative High-Throughput drug screen in 47 multiple myeloma cell lines against the NCATS MIPE library collection: KMM1_JCRB cell viability assay (AID 1918960); note: nearly all actives have a fitted effect of over 30% in size; note: potency is the fitted concentration of half-maximal effect
- Conditions: KMM1 myeloma viability, CellTiter-Glo ATP luminescence, 48 h; series mostly up to 45.8 µM
Results filed as inconclusive are left out. Active and inactive are the calls of the source. Calls come from the whole dose curve; as a rule, active = well fitted cell-killing curve with a large enough effect; inconclusive = small, poorly fitted or top-dose-only effect, or effect the other way; inactive = no such curve, though single readings can be large or run the other way.
Property Label: Potency

C[C@@H](NCCCc1cccc(C(F)(F)F)c1)c1cccc2ccccc12 = inactive
CN1CCN(c2c(F)cc3c(=O)c(C(=O)O)cn4c3c2OCN4C)CC1 = inactive
CCCc1nc(C)c2c(=O)[nH]c(-c3cc(S(=O)(=O)N4CCN(CC)CC4)ccc3OCC)nn12 = 3.72 µM (active)

====

- Assay Protocol: qHTS of pediatric cancer cell lines to identify multiple opportunities for drug repurposing: Primary screen for BT-37 cells (AID 1347094)
- Conditions: BT-37 viability, CellTiter-Glo luminescence, 48 h; series mostly up to 57.3 µM
Records with an inconclusive call do not appear. The source made the active and inactive calls. Calls come from the whole dose curve; as a rule, active = well fitted cell-killing curve with a large enough effect; inconclusive = small, poorly fitted or top-dose-only effect; inactive = flat fitted curve, though single readings scatter.
// one of active, inactive, no free text

Some entries whose results are on file:
O=P(O)(O)C(O)(Cc1cccnc1)P(=O)(O)O = inactive
Cc1cccc(N(C)C(=S)Oc2ccc3ccccc3c2)c1 = inactive
CN(C)CCc1c[nH]c2ccc(C[C@H]3COC(=O)N3)cc12 = inactive
Cc1ccnc2c1NC(=O)c1cccnc1N2C1CC1 = inactive
COCCCOc1cc(C[C@@H](C[C@H](N)[C@@H](O)C[C@H](C(=O)NCC(C)(C)C(N)=O)C(C)C)C(C)C)ccc1OC = inactive
Cc1noc(NS(=O)(=O)c2ccc(N)cc2)c1C = inactive
CO[C@@H]1[C@@H](OC(N)=O)[C@@H](O)[C@H](Oc2ccc3c(O)c(NC(=O)c4ccc(O)c(CC=C(C)C)c4)c(=O)oc3c2C)OC1(C)C = inactive

Input line: Short answer needed: outcome of this test for NC1(c2ccc(-c3nc4ccn5c(=O)[nH]nc5c4cc3-c3ccccc3)cc2)CCC1 ?
Output line: active

====

- Assay Protocol: Primary qHTS for inhibitors of nuclear receptor binding SET domain protein 2 (NSD2) in an isogenic RCH-ACV NSD2 p.E1099K mutant (9B) (AID 1645876); note: nearly all actives have a fitted effect of over 70% in size
- Conditions: RCH-ACV (leukaemia line) NSD2 E1099K (9B) viability, CellTiter-Glo, 72 h; series mostly up to 44.9 µM
Records with an inconclusive call do not appear. The source made the active and inactive calls. Calls follow the shape of the dose curve; as a rule, active = well fitted inhibition curve with a large enough effect; inconclusive = small, poorly fitted or top-dose-only effect; inactive = flat fitted curve, though single readings scatter.
In this exercise, the only acceptable responses are label 1 = active, label 0 = inactive

Worked examples follow.
NNC(=O)c1ccncc1 = label 0
CCN(CC)CCn1c(=O)c(Cc2ccc(OC)cc2)nc2ccccc21 = label 0
COc1ccccc1OCC(O)COC(N)=O (configuration not stated) = label 0
CCC(C)(C)c1ccc(CC(C)CN2C[C@@H](C)O[C@@H](C)C2)cc1 (some centres not stated) = label 0
CCOC(=O)c1ccc(C#Cc2ccc3c(c2)C(C)(C)CCS3)nc1 = label 0

Input line: What did this assay record as the result for COc1cccc(N(C)C(=S)Oc2ccc3c(c2)CCCC3)n1 ?
Output line: label 0

Input line: Cool, now CCOC(=O)[C@H](CCc1ccccc1)N[C@H]1CCc2ccccc2N(CC(=O)O)C1=O
Output line: label 0

Input line: Same read-out for CC(C)NCC(O)c1ccc(NS(C)(=O)=O)cc1 (configuration not stated) ?
Output line: label 0

Input line: // repeat for Cc1nnc(C(=O)NC(C)(C)c2nc(C(=O)NCc3ccc(F)cc3)c(O)c(=O)n2C)o1 and report
Output line: label 0

Input line: And the next one, Cc1oc(=O)oc1CN1CCN(c2cc3c(cc2F)c(=O)c(C(=O)O)c2n3C(C)S2)CC1 (configuration not stated) ?
Output line: label 0

Input line: Quick one: C[C@@H]1CN(c2c(F)c(N)c3c(=O)c(C(=O)O)cn(C4CC4)c3c2F)C[C@H](C)N1
Output line: label 0

Input line: Try C[C@@H]1C[C@H]2[C@@H]3CCC4=CC(=O)C=C[C@]4(C)[C@@]3(Cl)[C@@H](O)C[C@]2(C)[C@@]1(OC(=O)c1ccco1)C(=O)CCl next.
Output line: label 1
